test: soluble fraction after stress (log2 fold change); higher = more stays soluble; pooled small domains, quantitative proteomics; conditions: stress: 75 degC;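 further: 20 min heating vs room temperature control held 20 min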
Where soluble fraction (log2) equals or exceeds -0.05, the correct label is fulfilled; where it does not, the label is not fulfilled.

Completed entries (count: 5):
>>> assigned_category("HMSGYAIVNNQPGRTLNLRNSPSQSNNIIGQIPSGTRLQLISRGETWSEVIFQTTRGFVMSSFLRFET")
"not fulfilled"
>>> assigned_category("HMDTIVVAARSIQARQTLTESDLRVEEQEIGAASDKYYTDIAEAVGLVSSRRLSPGQPILRTM")
"not fulfilled"
>>> assigned_category("HMGQPGNWTSYVFKNSDTEPAKPTSSGPIPSGWNDAPTGVGIWWMSKATIDASTGKAGSWSTPIRVTGED")
"not fulfilled"
>>> assigned_category("HMFWVESDVDFVDKTSAHNAIKENERVIGMYISYRLNGTWTTEQYVGIDTSKDNWENPDNWNIL")
"not fulfilled"
>>> assigned_category("HMSDRFLDQEGVALSTLRPSGTVVLDSGEHLDVVTRGEFIEQGERVKVIKAESTWYVVEQIN")
"fulfilled"

Then there is this sequence:
Hi team, for HMTDVGLEAAKAAALKHAGLSADQVTGLTAKLDWDDGQRVYEVDFWQGSTEYEYEINADGTVRQYESEAH , is the recorded soluble fraction (log2) at or above -0.05? fulfilled

###

assay: soluble fraction after stress (log2 fold change); higher = more stays soluble; pooled small domains, quantitative proteomics; conditions: stress: 75 degC
Property label: soluble fraction (log2)
Give the value as a plain number.

// known answers, use as guide
>>> experimental_value("HMTHEAEDLNALRMMVRDPIFSSDEPDLQQLRGAVAHAPQFVDRFKELYNDYQRLAEFVQNSL")
-0.993
>>> experimental_value("HMTYGYFELKAKNLDSLKQFLKGIAQVESIEEENNGLKVFLKNELESEELSEKLAEAKIFVSHLAKKK")
-0.265
>>> experimental_value("HMDGVNRDKIEYRLDDLYYLKGSDAPYTGKVFEEWSGQQRVETNYIDGKLDGLSESWHENGQKASEVNY")
0.486

Could you now consider this next sequence?
Quick check: soluble fraction (log2) of HMENMTLGQRIQALRKQHGLSQEGLGERLGVSRQAISRWEMDGAVPEVDKLIAMARLFGVSLNQLLGVE ? -0.193

###

experiment: soluble fraction after stress (log2 fold change); higher = more stays soluble; pooled small domains, quantitative proteomics; details: stress: 75 degC
Where soluble fraction (log2) equals or exceeds -1, the correct label is class 1; where it does not, the label is class 0.

Completed entries (count: 6):
>>> assigned_category("HMTDSSEILEAALKEAEDAAHEVLNGTFSVQLEPQKAYIRRLQHMLIDRMNLSSTSKGKEPYRSLLVYR")
"class 0"
>>> assigned_category("HMTAPQAQDYARVPDVLGLDMRESAQALRLDGFEMNAQGDGLAARQSPIGGSYAPEGTQVLVTFEM")
"class 1"
>>> assigned_category("HMNGELSQRQWQILRLIAQGLSNEQMARQLFVAPSTIKTHINHLYAKLGVRTRAEAQAIARQKLMA")
"class 0"
>>> assigned_category("HMDGEMRRKRILQLLSEQTKPLSGTALAKQFGVSRQVIVQDIALLKSKEPAIISTYRGYVLGR")
"class 0"
>>> assigned_category("HMVSGVMAQQAIAVLVQQEDKHAPLSDQALAERLQVQGIDISRRTVAKYRQLLQIPSAATRR")
"class 1"
>>> assigned_category("HMRTNVDISPKILEWVLSQVRNRTTNDVIETIQIWIKGEKPPTFNQVEKISKATGVPLGYFFLKTPPVED")
"class 0"

Then there is this sequence:
Hi team, for HMLSDSDTLRDLYLSEQIWNVGDLIRVKGKNDDTHPSWEIIRRGTNYITAIDENYKSHKVWLHDIDI , is the recorded soluble fraction (log2) at or above -1? class 0

###

Known soluble fraction (log2) of a selection of sequences
experiment: soluble fraction after stress (log2 fold change); higher = more stays soluble; pooled small domains, quantitative proteomics; settings: stress: 75 degC

>>> experimental_value("HMQRFIHITVSDVHQATRLLEEEMQLTNYSVAENNAIKIFEFTYEPQEINHLFGKNGIEVSSLFIGS")
-0.0559
>>> experimental_value("HMDRFRYYITEDSVQRGTYPYVDETTLKRFTSQLHKYEQGMISAYGYLEYSKPLTAEQIKDYTLMPSP")
-0.0579
>>> experimental_value("HMKSLLDQINGIGAIRKRALLNHFGSARAVESASLDEIKSVEGVEAKVAKKIYNFFHEYKNMLR")
-1.51
>>> experimental_value("HMSSDKVWSFEASGKQLQASYVAFENETVYLRASEDGSLLQFPLTDFGMKDQLVVLELYELSAKINRSN")
-0.934
>>> experimental_value("HMLKRLTVEFSAEMPKKMTSEQKEELASVLSEDPRPAYQNDENREYGLDYGEFSVKFKVKDGVLTVTSVTE")
-0.0802

Quick check: soluble fraction (log2) of HMSRIDRKGLTSQIVNHLSKNPGKNFTLKQFFRNLKLNTHPLKMLAVDVLNKLLDTNFITRNEDGEFFLKA ? 0.154

Next sequence: HMGPIITKTYNLSYATARDVNDIIKSKKSARGDIVIDTRTNSLIVSDVQEKIDLIDEIVATL -0.368

###

assay: soluble fraction after stress (log2 fold change); higher = more stays soluble; pooled small domains, quantitative proteomics; conditions: stress: 75 degC
Where soluble fraction (log2) equals or exceeds -0.3, the correct label is T; where it does not, the label is F.

Completed entries (count: 4):
>>> assigned_category("HMITKENYLEKIKEIKVNEFPASMRELYDFFNEATRNGTDWSAYEEGNVKYVVDAYLERLNLLYKSN")
"F"
>>> assigned_category("HMNREMLVHAIGQLKEKYASALELKYWHGFTEREIAAFLNISEKAANSRLVRGRVMLRKLLE")
"T"
>>> assigned_category("HMIENMQEYVRHIRAAVSDRLDLTREVEDDEIREVISQIVAEESRQNYLSLGERQTVIETVFNSMR")
"F"
>>> assigned_category("HMAISSADRIVAELRTWISGASPGTQLPSSRTLAARYGASPVTVQKALHTLAGMGLVEARPGAGTFVRRQS")
"F"

Hi team, for HMDTERLYAYAWQTHLKQFGLNISEEEIRQFVGVDDRIVHSFYAKTVPLDDFENTMFSLGEIIQQSL , is the recorded soluble fraction (log2) at or above -0.3? F

###

assay: soluble fraction after stress (log2 fold change); higher = more stays soluble; pooled small domains, quantitative proteomics; details: stress: 75 degC
Where soluble fraction (log2) equals or exceeds -1, the correct label is true; where it does not, the label is false.

Completed entries (count: 5):
>>> assigned_category("HMSETVYQYVARQLRDMLGSGEIPVGQQLPTYRELAKRFQVSLSVIQRAMRQLKAEAVVSIAHGQGVKAVR")
"false"
>>> assigned_category("HMAQVDAVQQVLQAFPALRSGQSQHLSQVVAALRQRGILTVGTKTTAWFAQWASVFQLLPLQVPNRIRYQS")
"true"
>>> assigned_category("HMGESFPYVAYATDSVRLRARPSSSATILTVIRKGDAVLITGADGSYKIVEYEGRKGYVVSAFLSSQET")
"false"
>>> assigned_category("HMPIQLLSEKYMDEHWDELDKDEVSLYQNMSIRFLLKHEDDINWKLYSTNPFISIDTIDFFKDKISWVNI")
"false"
>>> assigned_category("HMFDDLSTNLRDLAHNYIEKYSPSKQQLKVFLLKKYLMKFKGSKTKKEISEIIDKIISNLEENKYLNDEL")
"true"

Hi team, for HMKQLNKRQNDILSFAEKQGYVSVENLAKLFSVTQQTIRRDINYLSDNELLVRTHGGAYYSS , is the recorded soluble fraction (log2) at or above -1? false

Next sequence: HMNNKVAVKSGYYFELFDKDEIPATLEKMKQKVKIDNIKYDLYQGTSLEDERKIDTMFGEKMGYSIDDYI true

###

experiment: soluble fraction after stress (log2 fold change); higher = more stays soluble; pooled small domains, quantitative proteomics; conditions: stress: 75 degC
Known soluble fraction (log2) of a selection of sequences
Give the value as a plain number.

// known answers, use as guide
>>> experimental_value("HMDLKTNSQLINELEKKIKRPFDREIKNYLNKNLSTDRMISNNEIDKIILFYSGNNEIPNIEKISLILNDN")
-0.0499
>>> experimental_value("HMFQTAADVAYRIISQKILDGEFPPGMKLSRRKMAEVTSVSVIPVIEALKKLEEDGLVESKPQWGSFVTI")
-1.69

Quick check: soluble fraction (log2) of HMGSLKISNPVKDTLWIQGVDGLKSIEIYSSTGQLVKTILGNQGDVSSLPKGVYFLKINTPSESLTAKIIK ? -1.28

Next sequence: HMNSNTIIFSQFLSEVDNGRVTQVQIQGNNIKGTLSNGKDFITYAPNDPNLIEKLTSKGVSISASPID 0.0526

Next sequence: HMQRSVNYSELHEIKERVFDALYSSPMSMPDLLAWLKGDEEHTISVIRLMQDNGDIEMGEDGRLAVV -0.383

Next sequence: HMPKTLTEAAYEDIKQWILEGEITPGSKISLEDTASRLEVSMTPIREALTKLQQEGLVEYIPRAGWRASK -0.0907

Next sequence: HMNTSSVTVHYQDEAGKSLADTVTLTGKVGETYSSEQKKITGYNFKEVRGNPKGQFTTEAQTVTYVYTQAA 0.211
